Origin of values: patent US12037324B2

For each entry below, report its BRET P63 Ymax value.
# SYSTEM: hAT1R (Homo sapiens, UniProt P30556)
# ASSAY_SUMMARY: cell-based
# TEST_PARAMETERS: agonist mode
The figure you give is taken to be in %; do not add the unit.

Please respond with reported BRET P63 Ymax (system hAT1R (Homo sapiens, UniProt P30556)) for CCCC1=NC2(CCCC2)C(=O)N1Cc1ccc(-c2cc(-c3cc(C)ccn3)ccc2-c2nn[nH]n2)cc1 [Example 116] .
27.7

Please respond with reported BRET P63 Ymax (system hAT1R (Homo sapiens, UniProt P30556)) for CCc1nc2c(C)cc(C)nc2n1Cc1ccc(-c2cc(-c3cc(C)ccn3)ccc2C(=O)O)cc1 [Example 193] .
29.3

Please respond with reported BRET P63 Ymax (system hAT1R (Homo sapiens, UniProt P30556)) for CCc1nc2c(C)cc(C)nc2n1Cc1ccc(-c2cc(-n3cncc3C)ccc2-c2nnn[nH]2)cc1 [Example 220] .
18.2

Please respond with reported BRET P63 Ymax (system hAT1R (Homo sapiens, UniProt P30556)) for CCC1=NC2(CCOC2)C(=O)N1Cc1ccc(-c2cc(-c3ccccc3O)ccc2-c2nnn[nH]2)cc1 (single isomer, unassigned) [Example 167] .
32.0

###

# SYSTEM: hAT1R (Homo sapiens)
# ASSAY_SUMMARY: BRET Gq biosensor assay, agonist response, HEK293 cells
# Format: cell-based
# TEST_PARAMETERS: section of the 42nd table directly before the BRET P63 section
QUANTITY_NAME: pEC50
Just the number, please; pEC50 means minus log10 of the concentration in mol/L.

Quote pEC50 reported for CCCCc1nc(Cl)c(C(=O)O)n1Cc1ccc(-c2cc(-c3cn(C(C)C)nc3C(F)(F)F)ccc2-c2nn[nH]n2)cc1 please.
6.09

Quote pEC50 reported for CCCCC(=O)N(Cc1ccc(-c2cc(-c3ccccc3)ccc2-c2nn[nH]n2)cc1)C1(C(=O)O)CCOCC1 please.
6.40

Quote pEC50 reported for CCc1nc2c(C)cc(C)nc2n1Cc1ccc(-c2cc(-c3ccccc3)ccc2-c2nn[nH]n2)c(F)c1 please.
7.53

Quote pEC50 reported for CCCCc1ncc(C(=O)NCC(C)(C)C)n1Cc1ccc(-c2cc(-c3ccccc3)ccc2-c2nn[nH]n2)cc1 please.
6.13

###

For each entry below, report its IP-1 Ymax (%) value.
# SYSTEM: AGTR1 (Homo sapiens, UniProt P30556)
# Construct: host or cells: Pathunter CHO-K1 AGTR1 β-arrestin cell line (CHO-K1)
# ASSAY_SUMMARY: DiscoveRx IP1 accumulation assay (HTRF), agonist mode, Pathunter CHO-K1 AGTR1 β-arrestin cell line
# Format: cell-based
The figure you give is taken to be in %; do not add the unit.

Quote IP-1 Ymax (%) reported for CCc1nc2c(C)cc(C)nc2n1Cc1ccc(-c2cc(Oc3cncc(OC)c3)ccc2-c2nn[nH]n2)cc1 [Example 261] please.
11.5

Quote IP-1 Ymax (%) reported for CCc1nc2c(C)cc(C)nc2n1Cc1ccc(-c2cc(Oc3ccccc3F)ccc2-c2nnn[nH]2)cc1 [Example 205] please.
16.7

Quote IP-1 Ymax (%) reported for CCc1nc2c(C)cc(C)nc2n1Cc1ccc(-c2cc(C3CCCCO3)ccc2-c2nn[nH]n2)cc1 (single isomer, unassigned) [Example 78] please.
37.8

Quote IP-1 Ymax (%) reported for CCc1nc2c(C)cc(C)nc2n1Cc1ccc(-c2cc(C3CCCOC3)ccc2-c2nn[nH]n2)cc1 (stereo not shown) [Example 79] please.
9.4

###

# SYSTEM: AGTR1 (Homo sapiens)
# Construct: host or cells: Pathunter CHO-K1 AGTR1 β-arrestin cell line (CHO-K1)
# Sequence (P30556 1-359): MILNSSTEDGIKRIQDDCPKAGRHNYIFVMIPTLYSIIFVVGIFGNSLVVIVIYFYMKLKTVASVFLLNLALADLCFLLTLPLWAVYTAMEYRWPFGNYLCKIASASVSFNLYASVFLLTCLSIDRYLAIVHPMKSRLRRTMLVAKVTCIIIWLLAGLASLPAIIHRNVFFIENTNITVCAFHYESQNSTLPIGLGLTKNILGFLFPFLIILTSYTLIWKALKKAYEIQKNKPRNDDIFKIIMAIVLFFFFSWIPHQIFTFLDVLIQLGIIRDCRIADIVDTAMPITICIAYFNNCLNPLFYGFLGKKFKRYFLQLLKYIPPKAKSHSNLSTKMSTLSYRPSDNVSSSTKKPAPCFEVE
# ASSAY_SUMMARY: DiscoveRx IP1 accumulation assay (HTRF), agonist mode, Pathunter CHO-K1 AGTR1 β-arrestin cell line
# Format: cell-based
# TEST_PARAMETERS: read-out: IP-1 EC50
pEC50: −log10 of the molar value.
Decision: pEC50 compared against 7; not below it gives T, below it gives F.

// inclusive: pEC50 at least 7? input: CCC1=NC2(CCCC2)C(=O)N1Cc1ccc(-c2cc(-c3ccccc3)ccc2-c2nn[nH]n2)cc1
F

// inclusive: pEC50 at least 7? input: CCCCC1=NC2(CCCC2)C(=O)N1Cc1ccc(-c2cc(-c3ccc(OC(F)F)cn3)ccc2-c2nn[nH]n2)cc1
T

// inclusive: pEC50 at least 7? input: CCC1=NC2(CCOC2)C(=O)N1Cc1ccc(-c2cc(-c3ccccc3O)ccc2-c2nnn[nH]2)cc1 (single isomer, unassigned) [Example 167]
F

###

# SYSTEM: hAT1R (Homo sapiens, UniProt P30556)
# ASSAY_SUMMARY: BRET β-arrestin2 biosensor assay, higher receptor expression (hAT1R 5 ng/well), HEK293 cells
# Assay type: cell-based
For each entry below, report its BRET β-Arrestin2 High AT1R Expression Ymax (%) value.

Quote BRET β-Arrestin2 High AT1R Expression Ymax (%) reported for CCc1nc2c(C)cc(C)nc2n1Cc1ccc(-c2cc(N3CCC(F)(F)CC3)ccc2-c2nn[nH]n2)cc1 please.
49.6%

Quote BRET β-Arrestin2 High AT1R Expression Ymax (%) reported for CCCCC(=O)N(Cc1ccc(-c2cc(-c3ccc4ncccc4c3)ccc2-c2nn[nH]n2)cc1)[C@H](C(=O)O)C(C)C please.
64.3%

Quote BRET β-Arrestin2 High AT1R Expression Ymax (%) reported for CCc1nc2c(C)cc(C)nc2n1Cc1ccc(-c2cc(Oc3ccccc3)ccc2C(=O)O)cc1 please.
89.9%

Quote BRET β-Arrestin2 High AT1R Expression Ymax (%) reported for CCc1nc2c(C)cc(C)nc2n1Cc1ccc(-c2cc(-c3ccccc3OC)ccc2-c2nn[nH]n2)cc1 please.
76.2%

###

# SYSTEM: UniProt P30556
# ASSAY_SUMMARY: BRET β-arrestin2 biosensor assay, higher receptor expression (hAT1R 5 ng/well), HEK293 cells
# Format: cell-based
# TEST_PARAMETERS: High AT1R Expression
QUANTITY_NAME: EC50

Quote EC50 reported for CCCCc1ncc(C(=O)N2CCCCC2)n1Cc1ccc(-c2cc(-c3ccccc3)ccc2-c2nn[nH]n2)cc1 [Example 378] please.
238 nM

Quote EC50 reported for CCc1nc2c(C)cc(C)nc2n1Cc1ccc(-c2cc(C3CCCO3)ccc2-c2nn[nH]n2)cc1 (single isomer, unassigned) [Example 74] please.
> 100000 nM

Quote EC50 reported for CCCCc1ncc(C(=O)NC(C)(C)C)n1Cc1ccc(-c2cc(-c3ccccc3)ccc2-c2nn[nH]n2)cc1 [Example 352] please.
290 nM

Quote EC50 reported for CCCc1nc(C(C)(C)O)c(C(=O)[O-])n1Cc1ccc(-c2cc(-c3ccccc3)ccc2-c2noc(=O)[nH]2)cc1.[Na+] [Example 403] please.
9.2 nM

Quote EC50 reported for CCCCC(=O)N(Cc1ccc(-c2cc(-c3cccnc3OC)ccc2-c2nn[nH]n2)cc1)[C@H](C(=O)O)C(C)C [Example 439] please.
117 nM

Quote EC50 reported for CCCCC(=O)N(Cc1ccc(-c2cc(-c3cnn(C)c3)ccc2-c2nn[nH]n2)cc1)C1(C(=O)O)CCCCC1 [Example 288] please.
474 nM

Quote EC50 reported for CCc1nc2c(C)cc(C)nc2n1Cc1ccc(-c2cc(-c3cccc(C)c3)ccc2C(=O)O)nc1 [Example 203] please.
124 nM

Quote EC50 reported for CCCCOC(=O)NS(=O)(=O)c1sc(-c2ccccc2C(F)(F)F)cc1-c1ccc(Cn2c(CC)nc3c(C)cc(C)nc32)cn1 [Example 46] please.
13.1 nM

Quote EC50 reported for CCc1nc2c(C)cc(C)nc2n1Cc1ccc(-c2cc(Oc3ccccn3)ccc2-c2nnn[nH]2)cc1 [Example 247] please.
13.8 nM

Quote EC50 reported for CCCCc1ncc(C(=O)NCCOC(C)C)n1Cc1ccc(-c2cc(-c3ccccc3)ccc2-c2nn[nH]n2)cc1 [Example 367] please.
17.6 nM

Quote EC50 reported for CCc1nc2c(C)cc(C)nc2n1Cc1ccc(-c2cc(-c3ccccc3)ccc2-c2nsc(=O)[nH]2)cc1 [Example 245] please.
4.9 nM

Quote EC50 reported for CCCCc1ncc(C(=O)Nc2ccncc2C)n1Cc1ccc(-c2cc(-c3ccccc3)ccc2-c2nn[nH]n2)cc1 [Example 375] please.
89.4 nM

Quote EC50 reported for CCc1nc2c(C)cc(C)nc2n1Cc1ccc(-c2cc(-c3cn(Cc4ccccc4)nn3)ccc2-c2nnn[nH]2)cc1 [Example 238] please.
281 nM

Quote EC50 reported for CCCCC(=O)N(Cc1ccc(-c2cc(-c3ccccc3)ccc2-c2nn[nH]n2)cc1)[C@]1(C(=O)O)CC[C@@H](C)CC1 [Example 278] please.
13 nM
